measured on: IN-GCN2 interaction (6xHis-IN / GST-GCN2) (UniProt P04585+Q9P2K8)
Sequence (Q9P2K8 192-1024, other chains not shown): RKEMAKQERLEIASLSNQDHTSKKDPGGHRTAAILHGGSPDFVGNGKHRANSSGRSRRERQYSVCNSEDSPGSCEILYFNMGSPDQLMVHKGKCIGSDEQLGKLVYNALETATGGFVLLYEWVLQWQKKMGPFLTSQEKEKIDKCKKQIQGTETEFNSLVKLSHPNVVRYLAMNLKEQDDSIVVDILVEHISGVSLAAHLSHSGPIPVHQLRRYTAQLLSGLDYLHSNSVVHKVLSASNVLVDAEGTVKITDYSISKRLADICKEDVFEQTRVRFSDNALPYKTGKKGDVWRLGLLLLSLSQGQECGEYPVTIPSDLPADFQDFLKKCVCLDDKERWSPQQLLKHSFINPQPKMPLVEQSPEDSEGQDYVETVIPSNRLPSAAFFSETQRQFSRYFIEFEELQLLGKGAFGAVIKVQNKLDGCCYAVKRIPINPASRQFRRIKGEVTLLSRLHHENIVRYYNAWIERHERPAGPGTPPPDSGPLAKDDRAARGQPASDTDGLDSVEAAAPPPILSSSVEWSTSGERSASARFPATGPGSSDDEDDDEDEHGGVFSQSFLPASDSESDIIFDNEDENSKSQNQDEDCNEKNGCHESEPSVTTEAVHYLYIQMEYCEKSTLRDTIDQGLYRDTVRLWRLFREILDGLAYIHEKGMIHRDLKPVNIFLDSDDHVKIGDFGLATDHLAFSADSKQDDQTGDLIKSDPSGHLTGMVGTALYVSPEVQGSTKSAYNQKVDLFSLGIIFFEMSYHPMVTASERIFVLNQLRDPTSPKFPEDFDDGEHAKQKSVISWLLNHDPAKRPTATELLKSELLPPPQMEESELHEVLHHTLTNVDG
assay overview: biochemical
Type: binding, HIV-1 IN; human GCN2
particulars: screen, single dose 100 µM, single replicate; residual AlphaLISA signal normalized to DMSO control
endpoint name: IN-GCN2 interaction (%)

Cc1c(N)nc([C@H](CC(N)=O)NC[C@H](N)C(N)=O)nc1C(=O)N[C@H](C(=O)N[C@H](C)[C@@H](O)[C@H](C)C(=O)N[C@H](C(=O)NCCc1nc(-c2nc(C(=O)NCCCN[C@@H](C)c3ccccc3)cs2)cs1)[C@@H](C)O)[C@@H](O[C@@H]1O[C@@H](CO)[C@@H](O)[C@H](O)[C@@H]1O[C@H]1O[C@H](CO)[C@@H](O)[C@H](OC(N)=O)[C@@H]1O)c1cnc[nH]1 [NSC276382]: 37.70
COc1cccc2c1C(=O)c1c(O)c3c(c(O)c1C2=O)C[C@@](O)(C(C)=O)C[C@@H]3O[C@H]1C[C@H](N)[C@H](O)[C@H](C)O1 [NSC82151]: 50.79

###

assay overview: Cytotoxicity (CellTiter 96 AQueous)
Format: cell-based
particulars: human; 24 h; read-out: CC50
endpoint name: CC50

CCCCCCCC(=O)OCC(=O)C1(O)Cc2c(O)c3c(c(O)c2C(OC2CC(N)C(O)C(C)O2)C1)C(=O)c1c(OC)cccc1C3=O (stereo not shown) [Compound 1g, adriamycin octanoate]: 1670 nM
COc1cc2c3c(cc4ccccc4c3c1O)N(C)CC2: > 5000 nM
CCN(CC)C1CC(OC2CC(O)(C(=O)CO)Cc3c(O)c4c(c(O)c32)C(=O)c2c(OC)cccc2C4=O)OC(C)C1O (stereo not shown): 512 nM
COc1cc2c(cc1OC)-c1c(OC)c(OC)cc3c1C(C2)N(C)CC3 (stereo not shown): > 5000 nM
CCC1(O)CC(OC2CC(N(C)C)C(O)C(C)O2)c2c(cc3c(c2O)C(=O)c2c(O)cccc2C3=O)C1C(=O)OC (stereo not shown): 2350 nM
COc1cccc2c1C(=O)c1c(O)c3c(c(O)c1C2=O)CC(O)(C(C)=O)CC3OC1CC([N+](C)(C)C)C(O)C(C)O1 (stereo not shown): > 5000 nM
CCC1(O)CC(OC2CC(N(C)C)C(O)C(C)O2)c2c(cc3c(c2O)C(=O)c2c(O)ccc(O)c2C3=O)C1C(=O)OC (stereo not shown): 589 nM
COc1cc2ccc3c(c2cc1OC)N(C)C(OC)c1cc2c(cc1-3)OCO2 (stereo not shown): > 5000 nM
CC[C@@]1(O)C[C@H](O[C@H]2C[C@H](N(C)C)[C@H](O[C@H]3C[C@H](O)[C@H](O[C@H]4CCC(=O)[C@H](C)O4)[C@H](C)O3)[C@H](C)O2)c2c(cc3c(c2O)C(=O)c2c(O)cccc2C3=O)[C@H]1C(=O)OC: 114 nM
CCC1(O)CC(OC2CC(N(C)C)C(OC3CC(O)C(OC4CCC(=O)C(C)O4)C(C)O3)C(C)O2)c2c(cc3c(c2O)C(=O)c2c(O)ccc(O)c2C3=O)C1C(=O)OC (stereo not shown): > 5000 nM
COc1cccc2c1C(=O)c1c(O)c3c(c(O)c1C2=O)CC(O)(C(=O)CO)CC3OC1CC(N2CCOCC2C#N)C(O)C(C)O1 (stereo not shown): < 2 nM
CCC1(O)CC(OC2CC(N(C)C)C(OC3CC4OC5CC(=O)C(C)OC5OC4C(C)O3)C(C)O2)c2c(cc3c(c2O)C(=O)c2c(O)ccc(O)c2C3=O)C1C(=O)OC (stereo not shown): > 5000 nM
COc1ccc2c(c1)CC1c3c(cc4c(c3-2)OCO4)CCN1C (stereo not shown): > 5000 nM
